Protocol Details: chemical genetic growth profiling, strain panel (AID 1159580);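 further: tested at 20 µM; growth read once vehicle control cultures reached saturation at 30 °C; 1 = growth at the plate median or of vehicle wells; lower values mean less growth of the strain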
Condition Details: S. cerevisiae deletion strains, growth OD, locus YMR205C, strain PFK2
Out of some 5,500 compounds screened, about 2,000 (36%) were called active. Another 18% or so got no clear call; they are omitted. No stated cut-off is given here; in the data, active means normalized growth mostly below about 0.91 (no sharp cut-off); inconclusive means no clear call, values can overlap the other calls; inactive means mostly above about 0.92. The list shows a part of the results.
Hello, when you answer, please use one of the following outcomes: class 1 (active), class 0 (inactive)

Observe how each entry below is paired with its result.
O=C(O)COc1ccc(Cl)cc1Cl | class 0
O=c1[nH]c(=O)n(C2C[C@H](O)[C@@H](CO)O2)cc1C(F)(F)F (some centres undefined) | class 0
CN(C/C=C/C#CC(C)(C)C)Cc1cccc2ccccc12 | class 1

// param item: C=C1C(=O)[C@]23[C@H](O)[C@H]1CC[C@H]2[C@@]12CO[C@]3(O)[C@H](O)[C@@H]1C(C)(C)CC[C@@H]2O ; yields the recorded call
class 0

---

Protocol Details: chemical genetic growth profiling, strain panel (AID 1159580);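 further: tested at 20 µM; growth read once vehicle control cultures reached saturation at 30 °C; 1 = growth at the plate median or of vehicle wells; lower values mean less growth of the strain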
Condition Details: S. cerevisiae deletion strains, growth OD, locus YMR231W, strain pep5, active compounds read low
Hit rate of the full screen: of about 5,500 compounds, about 2,000 (36%) were called active. About 18% were inconclusive and are not listed. This is one part of the list.
Property Measured: normalized growth

O=C(O)CCCCCCCC(=O)O | 1.01 (inactive)

Using the record for COP(=S)(OC)Oc1ccc([N+](=O)[O-])cc1 , report its normalized growth.
0.978 (inactive)

Using the record for NC(=O)NC1NC(=O)NC1=O (stereo unspecified) , report its normalized growth.
0.994 (inactive)

Using the record for CC(=O)C1CCC2C3CCC4C[C@H](O)CCC4(C)C3C[C@H](O)C12C (stereo partly specified) , report its normalized growth.
0.978 (inactive)

---

Protocol Details: chemical genetic growth profiling, strain panel (AID 1159580);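 further: tested at 20 µM; growth read once vehicle control cultures reached saturation at 30 °C; 1 = growth at the plate median or of vehicle wells; lower values mean less growth of the strain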
Condition Details: S. cerevisiae deletion strains, growth OD, locus YMR231W, strain pep5, active compounds read low
The whole screen tested about 5,500 compounds, of which about 2,000 (36%) were called active. Inconclusive results (about 18%) are left out. The list shows a part of the results.
Recorded normalized growth by entry
# answer = number (no unit)

Answered cases to consult:
Cc1ccc(C(=O)c2ccc(CC(=O)O)n2C)cc1 | 1.01
CC(C)/C(O)=C1/C(=O)O[C@@H](c2ccoc2)[C@]2(C)C(O)[C@@H](O)[C@@]34OC5(C)OC67CC(C)(C(O)[C@]6(O)[C@@H](O)[C@]3(O5)C12)[C@H](CC(=O)O)[C@]74C (some centres not stated) | 1
Cc1nnc(NS(=O)(=O)c2ccc(N)cc2)s1 | 1
COC(=O)[C@@H]1OC(=O)C2OC23[C@@]1(C)CCC1[C@@]2(C)CCC(=O)C(C)(C)C2C[C@@H](OC(C)=O)[C@]13C (some centres not stated) | 1
COc1ccc2nc(S(=O)Cc3ncc(C)c(OC)c3C)[nH]c2c1 (configuration not stated) | 1.01

Using the record for C1N2CN3CN1CN(C2)C3 , report its normalized growth.
0.992

Using the record for O=C(O)CCC1NCC2CC1CN1CCCCC21 (configuration not stated) , report its normalized growth.
0.985

Data credit: PubChem BioAssay AID1159580
